Source of measurements: ChEMBL document CHEMBL4808184

# experimental_protocol: in vivo
# details: dog, po, 1 mg/kg
measure: Cmax at 24 h (nM)

[
  {
    "line_notation": "C[C@H]1COc2c(N3CC[C@@H](C4(N)CC4)C3)c(F)cc3cc(C(=O)O)c(=O)n1c23",
    "val": 1350
  }
]

###

# experimental_protocol: in vivo
# details: rat, po, 5 mg/kg
Listed here: items and their measured bioavailability at 24 h.

[
  {
    "compound": "Cc1c(N2CCC(C3(N)CC3)C2)c(F)cc2c(Cc3n[nH]c(=O)o3)cc(=O)n(C3CC3)c12 (centres undefined)",
    "unit_descriptor": "%",
    "bioavailability at 24 h": 14.9
  },
  {
    "compound": "C[C@H](N)[C@@H]1CCN(c2c(F)cc3cc(C(=O)O)c(=O)n4c3c2OC[C@@H]4C)C1",
    "unit_descriptor": "%",
    "bioavailability at 24 h": 66
  },
  {
    "compound": "C[C@H]1COc2c(N3CC[C@@H](C4(N)CC4)C3)c(F)cc3cc(C(=O)O)c(=O)n1c23",
    "unit_descriptor": "%",
    "bioavailability at 24 h": 65
  },
  {
    "compound": "Cc1c(N2CCC(C3(N)CC3)C2)c(F)cc2c(CC(=O)N(C)C)cc(=O)n(C3CC3)c12 (centres undefined)",
    "unit_descriptor": "%",
    "bioavailability at 24 h": 32.5
  }
]

###

Listed here: items and their measured pEC50.
# Tested on: HepG2
# experimental_protocol: cells
# details: Homo sapiens, HepG2, 72 h
pEC50: −log10 of the molar value.

[
  {
    "compound": "Cc1c(N2CC3CC3(N)C2)c(F)cc2c(CN)cc(=O)n(C3CC3)c12 (stereo not given)",
    "pEC50": 4.09
  },
  {
    "compound": "C[C@H](N)[C@@H]1CCN(c2c(F)cc3cc(C(=O)O)c(=O)n4c3c2OC[C@@H]4C)C1",
    "pEC50": "< 4.00"
  },
  {
    "compound": "Cc1c(N2CCC(C3(N)CC3)C2)c(F)cc2cc(C(=O)O)c(=O)n(C3CC3)c12 (stereo not given)",
    "pEC50": "< 4.00"
  },
  {
    "compound": "Cc1c(N2CC[C@@H](C3(N)CC3)C2)c(F)cc2cc(C(=O)O)c(=O)n(C3CC3)c12",
    "pEC50": "< 4.00"
  },
  {
    "compound": "C[C@H]1COc2c(N3CC[C@@H](C4(N)CC4)C3)c(F)cc3cc(C(=O)O)c(=O)n1c23",
    "pEC50": "< 4.00"
  }
]

###

# Tested on: Staphylococcus aureus
# experimental_protocol: microbe, parasite or virus in culture
# details: ATCC 49951
measure: MIC (µg/mL)

[
  {
    "compound": "C[C@H]1COc2c(N3CC[C@@H](C4(N)CC4)C3)cc(F)c3cc(C(=O)O)c(=O)n1c23",
    "tested_target": "Staphylococcus aureus",
    "unit_descriptor": "µg/mL",
    "lt_gt_eq": "=",
    "val": 0.25
  },
  {
    "compound": "Cc1c(N2CC[C@@H](C3(N)CC3)C2)c(F)cc2cc(-c3noc(=O)[nH]3)c(=O)n(C3CC3)c12",
    "tested_target": "Staphylococcus aureus",
    "unit_descriptor": "µg/mL",
    "lt_gt_eq": "=",
    "val": 0.125
  },
  {
    "compound": "C[C@H]1COc2c(N3CC4CC(F)(F)C[C@@H](N)[C@H]4C3)c(F)cc3cc(C(=O)O)c(=O)n1c23 (single isomer, unassigned)",
    "tested_target": "Staphylococcus aureus",
    "unit_descriptor": "µg/mL",
    "lt_gt_eq": "≤",
    "val": 0.03
  },
  {
    "compound": "Cc1c(N2CC[C@@H](C3(N)CC3)C2)c(F)cc2cc(C#N)c(=O)n(C3CC3)c12",
    "tested_target": "Staphylococcus aureus",
    "unit_descriptor": "µg/mL",
    "lt_gt_eq": "=",
    "val": 0.06
  },
  {
    "compound": "Cc1c(N2CC[C@@H](C3(N)CC3)C2)c(F)cc2cc(-c3n[nH]c(=O)o3)c(=O)n(C3CC3)c12",
    "tested_target": "Staphylococcus aureus",
    "unit_descriptor": "µg/mL",
    "lt_gt_eq": "=",
    "val": 0.125
  },
  {
    "compound": "C[C@H]1Cc2c(N3CC[C@@H](C4(N)CC4)C3)c(F)cc3cc(C(=O)O)c(=O)n1c23",
    "tested_target": "Staphylococcus aureus",
    "unit_descriptor": "µg/mL",
    "lt_gt_eq": "=",
    "val": 0.25
  },
  {
    "compound": "Cc1c(N2CCC(C3(N)CC3)C2)c(F)cc2c(Cc3noc(=O)[nH]3)cc(=O)n(C3CC3)c12 (stereo unspecified)",
    "tested_target": "Staphylococcus aureus",
    "unit_descriptor": "µg/mL",
    "lt_gt_eq": "=",
    "val": 4
  },
  {
    "compound": "C[C@@H]1COc2c(N3CC[C@@H](C4(N)CC4)C3)c(F)cc3cc(C(=O)O)c(=O)n1c23",
    "tested_target": "Staphylococcus aureus",
    "unit_descriptor": "µg/mL",
    "lt_gt_eq": "=",
    "val": 16
  },
  {
    "compound": "C[C@H]1COc2c(N3C[C@H]4[C@H](C3)OCC[C@@H]4N)c(F)cc3cc(C(=O)O)c(=O)n1c23",
    "tested_target": "Staphylococcus aureus",
    "unit_descriptor": "µg/mL",
    "lt_gt_eq": "≤",
    "val": 0.03
  },
  {
    "compound": "C[C@H]1COc2c(N3CC[C@@H](C4(N)CC4)C3)c(Cl)cc3cc(C(=O)O)c(=O)n1c23",
    "tested_target": "Staphylococcus aureus",
    "unit_descriptor": "µg/mL",
    "lt_gt_eq": "=",
    "val": 2
  },
  {
    "compound": "C[C@H]1CCOc2c(N3CC[C@@H](C4(N)CC4)C3)c(F)cc3cc(C(=O)O)c(=O)n1c23",
    "tested_target": "Staphylococcus aureus",
    "unit_descriptor": "µg/mL",
    "lt_gt_eq": "=",
    "val": 0.25
  },
  {
    "compound": "C[C@H]1COc2c(N3CC[C@@H](C4(N)CCC4)C3)c(F)cc3cc(C(=O)O)c(=O)n1c23",
    "tested_target": "Staphylococcus aureus",
    "unit_descriptor": "µg/mL",
    "lt_gt_eq": "=",
    "val": 0.125
  },
  {
    "compound": "Cc1c(N2CC[C@@H]([C@H](C)N)C2)c(F)cc2cc(C(=O)O)c(=O)n(C3CC3)c12",
    "tested_target": "Staphylococcus aureus",
    "unit_descriptor": "µg/mL",
    "lt_gt_eq": "=",
    "val": 0.125
  },
  {
    "compound": "C[C@H]1COc2c(N3CC4OCC[C@@H](N)[C@H]4C3)c(F)cc3cc(C(=O)O)c(=O)n1c23 (single isomer, unassigned)",
    "tested_target": "Staphylococcus aureus",
    "unit_descriptor": "µg/mL",
    "lt_gt_eq": "=",
    "val": 0.125
  },
  {
    "compound": "COc1c(N2C[C@@H]3CCCN[C@@H]3C2)c(F)cc2c(=O)c(C(=O)O)cn(C3CC3)c12 [MOXIFLOXACIN]",
    "tested_target": "Staphylococcus aureus",
    "unit_descriptor": "µg/mL",
    "lt_gt_eq": "=",
    "val": 0.06
  },
  {
    "compound": "Cc1c(N2CC[C@@H](C3(N)CC3)C2)c(F)cc2cc(C(N)=O)c(=O)n(C3CC3)c12",
    "tested_target": "Staphylococcus aureus",
    "unit_descriptor": "µg/mL",
    "lt_gt_eq": "=",
    "val": 0.25
  }
]

###

# experimental_protocol: in vivo
# details: rat, 5 mg/kg
Listed here: items and their measured Vd at 24 h.

[
  {
    "compound": "Cc1c(N2CCC(C3(N)CC3)C2)c(F)cc2c(Cc3n[nH]c(=O)o3)cc(=O)n(C3CC3)c12 (stereo not given)",
    "Vd at 24 h / L/kg": 1.3
  },
  {
    "compound": "Cc1c(N2CCC(C3(N)CC3)C2)c(F)cc2cc(C(=O)O)c(=O)n(C3CC3)c12 (stereo not given)",
    "Vd at 24 h / L/kg": 0.69
  },
  {
    "compound": "Cc1c(N2CCC(C3(N)CC3)C2)c(F)cc2c(CC(=O)N(C)C)cc(=O)n(C3CC3)c12 (stereo not given)",
    "Vd at 24 h / L/kg": 3.3
  },
  {
    "compound": "C[C@H]1COc2c(N3CC[C@@H](C4(N)CC4)C3)c(F)cc3cc(C(=O)O)c(=O)n1c23",
    "Vd at 24 h / L/kg": 1.09
  },
  {
    "compound": "C[C@H](N)[C@@H]1CCN(c2c(F)cc3cc(C(=O)O)c(=O)n4c3c2OC[C@@H]4C)C1",
    "Vd at 24 h / L/kg": 1.75
  }
]
